Target: IKZF1 (Homo sapiens, UniProt Q13422+Q96SW2)
Construct: expressed in transfected cells
Sequence (Q13422 whole entry): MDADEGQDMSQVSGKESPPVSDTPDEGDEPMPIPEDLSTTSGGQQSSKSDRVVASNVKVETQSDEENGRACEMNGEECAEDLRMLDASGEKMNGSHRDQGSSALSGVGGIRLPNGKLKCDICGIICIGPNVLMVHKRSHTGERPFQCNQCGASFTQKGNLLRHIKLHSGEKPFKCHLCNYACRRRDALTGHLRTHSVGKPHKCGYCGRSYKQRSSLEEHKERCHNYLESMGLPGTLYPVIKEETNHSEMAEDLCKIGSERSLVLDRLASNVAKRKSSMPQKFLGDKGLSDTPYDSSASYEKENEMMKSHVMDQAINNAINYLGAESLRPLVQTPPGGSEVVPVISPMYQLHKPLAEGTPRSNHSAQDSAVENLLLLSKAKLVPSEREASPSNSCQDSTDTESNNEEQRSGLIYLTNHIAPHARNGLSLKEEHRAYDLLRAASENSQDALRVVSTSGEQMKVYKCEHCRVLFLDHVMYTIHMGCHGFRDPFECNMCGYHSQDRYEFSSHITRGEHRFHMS
Sequence (Q96SW2 whole entry): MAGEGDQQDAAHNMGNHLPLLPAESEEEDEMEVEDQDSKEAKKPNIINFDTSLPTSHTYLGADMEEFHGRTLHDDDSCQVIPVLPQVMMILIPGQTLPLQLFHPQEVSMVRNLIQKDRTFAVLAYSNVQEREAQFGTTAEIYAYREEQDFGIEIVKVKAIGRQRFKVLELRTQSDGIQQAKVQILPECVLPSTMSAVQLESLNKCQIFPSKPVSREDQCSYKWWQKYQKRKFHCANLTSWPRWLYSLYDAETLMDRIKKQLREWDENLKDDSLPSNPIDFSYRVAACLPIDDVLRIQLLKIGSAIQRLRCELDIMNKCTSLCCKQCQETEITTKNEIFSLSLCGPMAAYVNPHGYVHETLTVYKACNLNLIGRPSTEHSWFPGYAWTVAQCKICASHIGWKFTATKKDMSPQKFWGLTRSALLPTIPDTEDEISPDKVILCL
Sequence (Q16531 whole entry partner): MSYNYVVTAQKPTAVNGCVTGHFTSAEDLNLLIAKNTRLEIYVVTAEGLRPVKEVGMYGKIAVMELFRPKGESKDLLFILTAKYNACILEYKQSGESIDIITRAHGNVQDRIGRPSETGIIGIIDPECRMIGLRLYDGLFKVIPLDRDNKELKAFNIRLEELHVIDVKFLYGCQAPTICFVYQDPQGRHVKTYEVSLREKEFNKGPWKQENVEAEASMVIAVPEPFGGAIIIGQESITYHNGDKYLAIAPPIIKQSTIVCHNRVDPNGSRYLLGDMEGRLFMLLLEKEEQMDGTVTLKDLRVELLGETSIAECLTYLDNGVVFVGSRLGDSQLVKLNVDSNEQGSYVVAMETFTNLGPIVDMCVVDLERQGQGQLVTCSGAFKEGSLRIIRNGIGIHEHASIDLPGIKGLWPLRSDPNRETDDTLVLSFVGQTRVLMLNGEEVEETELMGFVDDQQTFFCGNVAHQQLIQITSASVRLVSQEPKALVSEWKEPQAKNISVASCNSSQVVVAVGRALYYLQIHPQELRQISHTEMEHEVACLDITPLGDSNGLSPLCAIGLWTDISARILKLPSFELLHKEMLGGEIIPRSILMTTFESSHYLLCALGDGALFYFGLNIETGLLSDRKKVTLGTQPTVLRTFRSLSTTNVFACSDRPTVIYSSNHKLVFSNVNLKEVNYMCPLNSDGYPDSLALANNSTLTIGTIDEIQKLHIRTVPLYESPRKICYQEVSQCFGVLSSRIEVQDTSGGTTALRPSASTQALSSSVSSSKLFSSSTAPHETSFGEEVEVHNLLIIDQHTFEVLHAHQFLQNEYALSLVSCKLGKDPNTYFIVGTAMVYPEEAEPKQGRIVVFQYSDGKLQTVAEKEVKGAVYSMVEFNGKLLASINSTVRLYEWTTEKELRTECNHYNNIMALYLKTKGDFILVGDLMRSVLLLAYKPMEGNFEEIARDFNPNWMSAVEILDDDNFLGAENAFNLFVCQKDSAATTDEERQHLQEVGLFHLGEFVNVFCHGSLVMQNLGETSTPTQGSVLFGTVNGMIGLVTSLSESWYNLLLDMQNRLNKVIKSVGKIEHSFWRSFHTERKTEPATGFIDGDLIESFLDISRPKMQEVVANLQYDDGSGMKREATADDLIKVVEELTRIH
Experiment: HEK293 HiBiT in vitro degradation of IKZF1
Assay type: cell-based
Settings: HEK293 HiBiT, 18-24 hr incubation, normalized to DMSO control; read-out: IKZF1 EC50
Observed Property: DC50 (nM)

# count of solved cases: 2
compound="CC1(C)OCCC1N[C@H]1CCCC[C@@H]1Cc1ccc2c(c1)CN(C1CCC(=O)NC1=O)C2=O (single isomer, unassigned) [Example 274]" measurement=102
compound="O=C1CCC(N2Cc3c(ccc(C[C@H]4CCCC[C@@H]4NCC4CCOCC4)c3F)C2=O)C(=O)N1 (stereo partly drawn) [Example 187]" measurement=78

(P) CC(CF)N[C@H]1CCCC[C@@H]1Cc1ccc2c(c1)CN(C1CCC(=O)NC1=O)C2=O (stereo partly drawn) [Example 127]
(Q) O=C1CCC(N2Cc3cc(C[C@H]4CCCC[C@@H]4NCc4cncs4)ccc3C2=O)C(=O)N1 (stereo partly drawn) [Example 6]
Please indicate which entry, P or Q , has the lower recorded DC50 value. Your choice should be expressed through its label.
P

(a) [2H]C1(N[C@H]2CCCC[C@@H]2Cc2ccc3c(c2)CN(C2CCC(=O)NC2=O)C3=O)CC(C)(C)C1 (stereo partly drawn) [Example 214]
(b) C[C@]1(O)CC[C@H](NC2CCC(F)(F)CC2)[C@@H](Cc2ccc3c(c2)CN(C2CCC(=O)NC2=O)C3=O)C1 (stereo partly drawn) [Example 155]
Sorting ascending by DC50, which comes first: a or b ? Answer by quoting the chosen item's label.
a

====

Target: IKZF1 (Homo sapiens, UniProt Q13422+Q96SW2)
Construct: expressed in transfected cells
Assay: HEK293 HiBiT in vitro degradation of IKZF1
Format: cell-based
Details: HEK293 HiBiT, 18-24 hr incubation, normalized to DMSO control; read-out: IKZF1 EC50
Observed Property: DC50 (nM)

// worked examples, DC50 included
molecule="O=C1CCC(N2Cc3cc(C[C@H]4CCCC[C@@H]4NC4CCCC[C@H]4F)ccc3C2=O)C(=O)N1 (stereo partly drawn) [Example 107]" observed_property=DC50 measurement=81
molecule="O=C1CCC(N2Cc3cc(C[C@H]4CCCC[C@@H]4NCCC(F)(F)F)ccc3C2=O)C(=O)N1 (stereo partly drawn) [Example 104]" observed_property=DC50 measurement=75
molecule="O=C1CCC(N2Cc3cc(C[C@H]4CCCC[C@@H]4NCc4ccccc4)ccc3C2=O)C(=O)N1 (single isomer, unassigned) [Example 120]" observed_property=DC50 measurement=100
molecule="CC(C)N[C@H]1CCCC[C@@H]1Cc1ccc2c(c1)CN(C1CCC(=O)NC1=O)C2=O (stereo partly drawn) [Example 7]" observed_property=DC50 measurement=462
molecule="O=C1CCC(N2Cc3cc(C[C@H]4CCCC[C@@H]4NC4CCC(C(F)(F)F)CC4)ccc3C2=O)C(=O)N1 (single isomer, unassigned) [Example 121]" observed_property=DC50 measurement=68
molecule="CCC(C)N[C@H]1CCCC[C@@H]1Cc1ccc2c(c1F)CN(C1CCC(=O)NC1=O)C2=O (single isomer, unassigned) [Example 294]" observed_property=DC50 measurement=912
molecule="O=C1CCC(N2Cc3cc(C[C@H]4CCCC[C@@H]4NC4CC5CCC(C4)O5)ccc3C2=O)C(=O)N1 (stereo partly drawn) [Example 184]" observed_property=DC50 measurement=56
molecule="O=C1CCC(N2Cc3cc(C[C@H]4CCC(F)(F)C[C@@H]4NC4CCC(F)(F)CC4)ccc3C2=O)C(=O)N1 (stereo partly drawn) [Example 345]" observed_property=DC50 measurement=174
molecule="O=C1CCC(N2Cc3cc(C[C@H]4CCCC[C@@H]4NC4CCS(=O)(=O)CC4)ccc3C2=O)C(=O)N1 (stereo partly drawn) [Example 91]" observed_property=DC50 measurement=160

(1) CCN[C@H]1CCCC[C@@H]1Cc1ccc2c(c1)CN(C1CCC(=O)NC1=O)C2=O (stereo partly drawn) [Example 35]
(2) [2H]C1(N[C@H]2CCCC[C@@H]2Cc2ccc3c(c2F)CN(C2CCC(=O)NC2=O)C3=O)CCC2(CC2)CC1 (stereo partly drawn) [Example 210]
(3) CCC(CC)N[C@H]1CCCC[C@@H]1Cc1ccc2c(c1)CN(C1CCC(=O)NC1=O)C2=O (stereo partly drawn) [Example 23]
(4) CCCCN[C@H]1CCCC[C@@H]1Cc1ccc2c(c1)CN(C1CCC(=O)NC1=O)C2=O (stereo partly drawn) [Example 128]
List by increasing DC50. As an answer, provide the labels arranged in the order called for.
2, 4, 1, 3
